Data origin: ChEMBL document CHEMBL1146339

experiment: Antioxidant activity in BALB/c mouse BM cells assessed as inhibition of ROS production; type: functional; details: Bone marrow cell
ENDPOINT: IC25 (µM)
Express it in µM; write the number only.

Worked cases, answers included:
O=C1CC(c2ccc(O)cc2)Oc2ccccc21 (stereo not given) [4'-HYDROXY-FLAVANONE]    3300
O=c1c(O)c(-c2ccc(O)cc2)oc2cc(O)cc(O)c12    4
COc1cccc2oc(-c3ccc(O)cc3)cc(=O)c12    1270

The measured IC25 associated with "O=c1c(O)c(-c2ccc(O)c(O)c2)oc2cc(O)cc(O)c12" reads 3.5

The measured IC25 associated with "O=c1cc(-c2ccccc2O)oc2c(O)c(O)ccc12" reads 0.52

The measured IC25 associated with "COc1ccc([C@@H]2CC(=O)c3c(O)cc(O)cc3O2)cc1O" reads 647
